System: BDF1 mice, P388 leukemia ip, median survival T/C
experiment description: NCI In Vivo Anticancer Drug Screen. Data for tumor model P388 Leukemia (intraperitoneal) in B6D2F1 (BDF1) mice
condition label: endpoint: median survival time; dose: 12.0 mg/kg/injection; schedule: Q01DX009 (ip); vehicle: Klucel (hydroxypropylcellulose) (HPC); higher = longer survival
Inconclusive results and toxic doses are left out.
Measured T/C of individual entries

Exam item: Query for BDF1 mice, P388 leukemia ip, median survival T/C: what T/C does the record show for CC(=O)[O][Hg][c]1cc[c]([Hg][O]C(C)=O)s1 ?
Marked response: 100 % of control

Exam item: Notebook entry, BDF1 mice, P388 leukemia ip, median survival T/C assay: T/C of COc1ccc(N=C(c2ccccc2)c2ccc([N+](=O)[O-])cc2)cc1 = ?
Marked response: 100 % of control

Exam item: # get_value(readout= T/C, system= BDF1 mice, P388 leukemia ip, median survival T/C) for N#Cc1nc2c(nc1C#N)-c1ccccc1C2=O
Marked response: 107 % of control

Exam item: Entry Cc1c(C)c(N)c(C)c(C)c1N , system BDF1 mice, P388 leukemia ip, median survival T/C: what T/C was measured?
Marked response: 95 % of control

====

Test system: BDF1 mice, P388 leukemia ip, median survival T/C
experiment description: NCI In Vivo Anticancer Drug Screen. Data for tumor model P388 Leukemia (intraperitoneal) in B6D2F1 (BDF1) mice
condition label: endpoint: median survival time; dose: 200.0 mg/kg/injection; schedule: Q04DX003 (ip); vehicle: saline
Inconclusive results and toxic doses are left out. How the source made its calls: active means survival T/C of 150% or more; inactive means T/C below 125% in these data.
A correct response names exactly one class from y for active, n for inactive

The following compounds have reported results that may help.
compound	answer label
COc1cc2cc(-c3cc(OC)c(OC)c(OC)c3)c3c(c2cc1OC)CNC3=O	n
O=C(O)CCCC1CCC(=O)CC1	n
NOCc1cccc([N+](=O)[O-])c1	n

Exam item: Hi team, can someone confirm the assay call for CCN(CCNc1ccc(C)c2sc3ccccc3c(=O)c12)CC(C)(C)O ?
Marked response: y

Exam item: Recorded test outcome, item Brc1ccc(C[N+]23CN4CN(CN(C4)C2)C3)cc1
Marked response: n

Exam item: Check the results log: what was the call for CCOC1NC(C)(C)CO1 (centres undefined) ?
Marked response: n

====

Quick reference for T/C among some molecules
Tested on: BDF1 mice, P388 leukemia ip, median survival T/C
experiment description: NCI In Vivo Anticancer Drug Screen. Data for tumor model P388 Leukemia (intraperitoneal) in B6D2F1 (BDF1) mice
condition label: endpoint: median survival time; dose: 200.0 mg/kg/injection; schedule: Q01DX001 (ip); vehicle: Klucel (hydroxypropylcellulose) (HPC); higher = longer survival
Toxic doses and inconclusive results are not listed.

Consider the reported T/C for these molecules:
molecule	T/C
O=C(Nc1cccc(Cl)c1)Oc1ccc2ccccc2c1	113 % of control
Nc1ccccc1SC1CC(=O)N(c2ccccc2)C1=O (stereo not drawn)	95 % of control
CC(=O)c1c(C)[nH]c(C(=O)OC(C)(C)C)c1C	100 % of control

Exam item: Which T/C is listed for CN(C)C(=O)c1cccc(COc2ccc([N+](=O)[O-])cc2Cl)c1 ?
Marked response: 109 % of control

Exam item: Given the molecule O=C1CSC(=S)N1c1ccco1 , what is its reported T/C?
Marked response: 95 % of control

Exam item: Report T/C for O=C1OCC2CC3c4ccccc4C12c1ccccc13 (stereo not drawn) please.
Marked response: 105 % of control

Exam item: Which measured T/C value corresponds to Cc1ccc(N=C(c2ccccc2)c2ccc([N+](=O)[O-])cc2)cc1 ?
Marked response: 100 % of control

Exam item: I have this molecule here, NC(C(=O)O)c1cccc(Cl)c1 (stereo not drawn) , and I need its recorded T/C.
Marked response: 108 % of control
